These entries and their values trace back to paper PMC5651194.

biological target: human PDE11A4 (Homo sapiens, UniProt Q9HCR9)
MEASURED METRIC: IC50

Recorded IC50 (molecule CCOC(=O)c1cc2c(=O)n3ccccc3nc2n(C2CCCCC2)/c1=N\C(C)=O [BC54] ): ~3 µM

====

biological target: UniProt:Q9Y233
Sequence (Q9Y233 1-779 isoform Q9Y233-1): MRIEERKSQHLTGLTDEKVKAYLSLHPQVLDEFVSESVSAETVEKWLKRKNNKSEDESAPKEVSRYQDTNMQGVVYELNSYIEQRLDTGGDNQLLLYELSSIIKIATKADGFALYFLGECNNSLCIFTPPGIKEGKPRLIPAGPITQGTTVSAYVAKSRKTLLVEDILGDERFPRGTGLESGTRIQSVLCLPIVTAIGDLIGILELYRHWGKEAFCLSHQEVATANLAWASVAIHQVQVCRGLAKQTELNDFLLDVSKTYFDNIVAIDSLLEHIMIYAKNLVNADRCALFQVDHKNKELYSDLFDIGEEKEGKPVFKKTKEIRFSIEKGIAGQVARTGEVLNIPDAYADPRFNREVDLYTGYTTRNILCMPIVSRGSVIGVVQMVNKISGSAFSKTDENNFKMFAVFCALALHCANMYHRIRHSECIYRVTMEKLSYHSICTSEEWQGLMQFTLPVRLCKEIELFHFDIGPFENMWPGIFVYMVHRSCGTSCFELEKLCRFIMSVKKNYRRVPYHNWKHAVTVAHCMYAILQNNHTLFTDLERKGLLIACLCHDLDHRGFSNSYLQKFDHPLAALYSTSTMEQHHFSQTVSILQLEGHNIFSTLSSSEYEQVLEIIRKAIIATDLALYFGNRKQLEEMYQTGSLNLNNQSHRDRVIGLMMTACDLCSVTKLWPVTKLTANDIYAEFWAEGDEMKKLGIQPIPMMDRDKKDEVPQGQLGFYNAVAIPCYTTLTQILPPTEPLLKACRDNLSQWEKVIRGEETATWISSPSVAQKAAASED
MEASURED METRIC: IC50

Short answer on UniProt:Q9Y233 for CCOC(=O)c1cc2c(=O)n3ccccc3nc2n(C2CCCCC2)/c1=N\C(C)=O , IC50: > 10 µM

====

target: human PDE9A2 (Homo sapiens)
MEASURED METRIC: IC50

Short answer on human PDE9A2 (Homo sapiens) for CCOC(=O)c1cc2c(=O)n3ccccc3nc2n(C2CCCCC2)/c1=N\C(C)=O [BC54] , IC50: > 10 µM

====

target: rat PDE2A (Rattus norvegicus)
pIC50: −log10 of the molar value.
MEASURED METRIC: pIC50

Short answer on rat PDE2A (Rattus norvegicus) for CCOC(=O)c1cc2c(=O)n3ccccc3nc2n(C2CCCCC2)/c1=N\C(C)=O [BC54] , pIC50: ~5.52

====

biological target: human PDE1C (Homo sapiens)
Sequence (Q14123 whole entry): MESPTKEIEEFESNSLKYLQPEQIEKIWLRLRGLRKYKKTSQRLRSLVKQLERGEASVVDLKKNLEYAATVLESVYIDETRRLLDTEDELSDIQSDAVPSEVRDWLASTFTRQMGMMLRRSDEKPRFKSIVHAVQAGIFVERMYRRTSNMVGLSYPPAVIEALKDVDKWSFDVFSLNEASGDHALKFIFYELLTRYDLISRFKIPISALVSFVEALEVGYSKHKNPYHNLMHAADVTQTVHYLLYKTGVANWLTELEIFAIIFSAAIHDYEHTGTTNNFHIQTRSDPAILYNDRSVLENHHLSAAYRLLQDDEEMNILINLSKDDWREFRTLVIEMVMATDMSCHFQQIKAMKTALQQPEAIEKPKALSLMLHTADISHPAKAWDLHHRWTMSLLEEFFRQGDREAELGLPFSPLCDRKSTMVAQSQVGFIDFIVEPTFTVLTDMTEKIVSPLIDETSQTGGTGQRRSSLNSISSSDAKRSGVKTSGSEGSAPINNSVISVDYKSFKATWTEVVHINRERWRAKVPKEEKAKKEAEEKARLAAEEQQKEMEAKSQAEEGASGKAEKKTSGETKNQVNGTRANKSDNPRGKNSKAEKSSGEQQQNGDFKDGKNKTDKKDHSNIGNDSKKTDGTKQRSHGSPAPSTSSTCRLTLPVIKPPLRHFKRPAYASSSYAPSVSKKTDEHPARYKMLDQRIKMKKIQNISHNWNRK
MEASURED METRIC: IC50

Short answer on human PDE1C (Homo sapiens) for CCOC(=O)c1cc2c(=O)n3ccccc3nc2n(C2CCCCC2)/c1=N\C(C)=O , IC50: > 10 µM

====

biological target: human PDE3B (Homo sapiens)
Sequence (Q13370 whole entry): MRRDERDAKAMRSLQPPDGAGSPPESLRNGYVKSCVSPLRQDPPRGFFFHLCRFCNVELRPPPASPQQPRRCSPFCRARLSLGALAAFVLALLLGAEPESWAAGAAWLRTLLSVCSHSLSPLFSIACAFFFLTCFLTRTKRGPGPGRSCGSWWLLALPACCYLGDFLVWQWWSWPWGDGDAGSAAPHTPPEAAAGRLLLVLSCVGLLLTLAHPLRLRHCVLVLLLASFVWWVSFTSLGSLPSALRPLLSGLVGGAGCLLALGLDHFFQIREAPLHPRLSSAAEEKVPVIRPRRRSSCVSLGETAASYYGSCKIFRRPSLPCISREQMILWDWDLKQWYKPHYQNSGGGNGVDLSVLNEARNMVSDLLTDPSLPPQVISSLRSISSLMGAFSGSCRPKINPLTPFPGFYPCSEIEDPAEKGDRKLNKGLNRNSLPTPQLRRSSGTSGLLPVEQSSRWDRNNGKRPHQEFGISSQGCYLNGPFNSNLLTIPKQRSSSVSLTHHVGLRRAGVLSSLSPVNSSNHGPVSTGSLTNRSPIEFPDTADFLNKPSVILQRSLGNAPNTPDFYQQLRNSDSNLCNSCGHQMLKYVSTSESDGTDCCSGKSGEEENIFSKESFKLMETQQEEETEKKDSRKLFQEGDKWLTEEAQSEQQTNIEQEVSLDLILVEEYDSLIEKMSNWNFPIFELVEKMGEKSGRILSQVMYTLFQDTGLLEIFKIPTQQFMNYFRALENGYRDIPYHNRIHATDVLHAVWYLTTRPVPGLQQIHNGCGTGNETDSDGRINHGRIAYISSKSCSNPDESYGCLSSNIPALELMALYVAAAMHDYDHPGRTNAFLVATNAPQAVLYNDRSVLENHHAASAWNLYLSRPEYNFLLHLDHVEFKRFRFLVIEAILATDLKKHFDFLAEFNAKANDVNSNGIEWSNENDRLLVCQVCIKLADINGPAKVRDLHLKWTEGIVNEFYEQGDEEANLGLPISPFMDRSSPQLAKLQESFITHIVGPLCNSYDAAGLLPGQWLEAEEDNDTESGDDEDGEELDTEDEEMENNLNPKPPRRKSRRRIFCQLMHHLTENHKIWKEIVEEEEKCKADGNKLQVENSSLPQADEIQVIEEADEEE
pIC50: −log10 of the molar value.
MEASURED METRIC: pIC50

Recorded pIC50 (compound CCOC(=O)c1cc2c(=O)n3ccccc3nc2n(C2CCCCC2)/c1=N\C(C)=O [BC54] ): < 5.00

====

molecular target: PDE7B (Homo sapiens, UniProt Q9NP56)
Sequence (Q9NP56 whole entry): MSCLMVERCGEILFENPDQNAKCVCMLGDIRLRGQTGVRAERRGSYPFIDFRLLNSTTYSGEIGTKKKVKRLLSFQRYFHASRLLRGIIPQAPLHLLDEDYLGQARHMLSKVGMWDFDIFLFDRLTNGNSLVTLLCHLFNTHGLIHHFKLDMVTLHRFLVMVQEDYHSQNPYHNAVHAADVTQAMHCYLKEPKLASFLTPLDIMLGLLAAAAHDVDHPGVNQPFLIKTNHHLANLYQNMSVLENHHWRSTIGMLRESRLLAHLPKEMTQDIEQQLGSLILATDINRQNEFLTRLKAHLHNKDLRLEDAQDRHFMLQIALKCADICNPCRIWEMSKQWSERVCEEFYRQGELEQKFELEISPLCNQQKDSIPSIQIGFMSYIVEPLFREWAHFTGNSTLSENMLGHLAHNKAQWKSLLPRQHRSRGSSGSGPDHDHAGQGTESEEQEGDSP
MEASURED METRIC: IC50 (nM)
Give the value in nM but do not write nM after it.

Short answer on PDE7B (Homo sapiens, UniProt Q9NP56) for CCOC(=O)c1cc2c(=O)n3ccccc3nc2n(C2CCCCC2)/c1=N\C(C)=O [BC54] , IC50: 140

====

target: Human PDE4D2 (Homo sapiens, UniProt Q08499)
Sequence (Q08499 388-713): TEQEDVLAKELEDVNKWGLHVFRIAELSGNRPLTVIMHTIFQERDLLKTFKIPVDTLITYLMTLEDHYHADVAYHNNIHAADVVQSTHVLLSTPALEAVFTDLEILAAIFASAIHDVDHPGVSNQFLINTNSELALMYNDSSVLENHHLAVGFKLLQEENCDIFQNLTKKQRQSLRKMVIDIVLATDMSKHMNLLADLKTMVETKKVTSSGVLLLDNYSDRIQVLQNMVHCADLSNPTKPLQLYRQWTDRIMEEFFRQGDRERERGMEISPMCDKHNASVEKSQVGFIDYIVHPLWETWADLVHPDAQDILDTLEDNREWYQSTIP
pIC50: −log10 of the molar value.
MEASURED METRIC: pIC50

Short answer on Human PDE4D2 (Homo sapiens, UniProt Q08499) for CCOC(=O)c1cc2c(=O)n3ccccc3nc2n(C2CCCCC2)/c1=N\C(C)=O , pIC50: 6.96 to 7.30

====

biological target: Human PDE4A10 (Homo sapiens, UniProt P27815)
Sequence (P27815 351-683): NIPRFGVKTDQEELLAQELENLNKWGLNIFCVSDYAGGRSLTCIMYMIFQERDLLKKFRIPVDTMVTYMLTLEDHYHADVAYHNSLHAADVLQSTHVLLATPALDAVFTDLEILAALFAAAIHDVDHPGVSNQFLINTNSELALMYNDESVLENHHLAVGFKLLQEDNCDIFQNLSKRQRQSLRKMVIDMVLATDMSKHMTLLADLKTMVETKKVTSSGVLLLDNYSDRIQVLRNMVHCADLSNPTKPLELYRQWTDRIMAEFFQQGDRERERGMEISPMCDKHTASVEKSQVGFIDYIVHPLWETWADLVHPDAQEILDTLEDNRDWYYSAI
pIC50: −log10 of the molar value.
MEASURED METRIC: pIC50

Short answer on Human PDE4A10 (Homo sapiens, UniProt P27815) for CCOC(=O)c1cc2c(=O)n3ccccc3nc2n(C2CCCCC2)/c1=N\C(C)=O , pIC50: 6.96 to 7.30

====

molecular target: human PDE8A (Homo sapiens, UniProt O60658)
Sequence (O60658 whole entry): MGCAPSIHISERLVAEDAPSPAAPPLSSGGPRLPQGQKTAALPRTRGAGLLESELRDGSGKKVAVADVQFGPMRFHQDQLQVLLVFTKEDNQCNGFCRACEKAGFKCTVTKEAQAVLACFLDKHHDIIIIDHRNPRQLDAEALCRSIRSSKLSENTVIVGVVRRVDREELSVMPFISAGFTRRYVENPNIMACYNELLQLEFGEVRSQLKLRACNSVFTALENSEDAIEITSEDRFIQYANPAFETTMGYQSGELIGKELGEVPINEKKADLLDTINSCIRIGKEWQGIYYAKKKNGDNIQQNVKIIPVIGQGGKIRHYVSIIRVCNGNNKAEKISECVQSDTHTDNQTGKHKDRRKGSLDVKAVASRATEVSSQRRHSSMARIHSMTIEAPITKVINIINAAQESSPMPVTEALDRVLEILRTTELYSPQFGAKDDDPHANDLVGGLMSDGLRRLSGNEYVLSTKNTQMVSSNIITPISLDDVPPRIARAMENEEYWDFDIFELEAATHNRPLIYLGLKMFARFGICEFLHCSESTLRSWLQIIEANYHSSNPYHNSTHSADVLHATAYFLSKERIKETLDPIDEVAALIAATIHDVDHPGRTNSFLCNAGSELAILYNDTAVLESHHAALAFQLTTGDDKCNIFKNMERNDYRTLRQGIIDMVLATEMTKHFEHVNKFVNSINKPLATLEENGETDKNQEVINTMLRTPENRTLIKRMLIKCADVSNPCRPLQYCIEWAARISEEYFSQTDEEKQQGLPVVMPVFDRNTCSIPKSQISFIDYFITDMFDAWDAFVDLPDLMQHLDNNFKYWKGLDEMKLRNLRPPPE
pIC50: −log10 of the molar value.
MEASURED METRIC: pIC50

Short answer on human PDE8A (Homo sapiens, UniProt O60658) for CCOC(=O)c1cc2c(=O)n3ccccc3nc2n(C2CCCCC2)/c1=N\C(C)=O [BC54] , pIC50: < 5.00
